Data provenance is patent US12390437B2.

log10(concentration at 2 h) values for the compounds below.
Experiment: Mouse pharmacokinetic study, oral administration
Type: in vivo
Conditions: male, C57BL/6, mouse, plasma, po, 100 mg/kg, plasma, male C57BL/6 mice, oral gavage 100 mg/kg, 2 h; read-out: Parent compound concentrations following oral administration, Time 2 h
readout_kind: log10(concentration at 2 h) (log10 of the value in ng/mL)

INSERT INTO measurements (compound, measured_number) VALUES
  ('C=C(CC(=O)O[C@@H](C)CCCCCC)C(=O)OCc1nn[nH]n1', 2.77),
  ('C=C(CC(=O)OC1CCCCC1)C(=O)OCCC(=O)O', 3.16),
  ('C=C(CC(=O)O[C@@H](C)CCCCCC)C(=O)OCCc1nnn[nH]1', 1.79),
  ('C=C(CC(=O)O[C@H](C)CCCCCC)C(=O)OCC(=O)O', 4.50),
  ('C=C(CC(=O)O[C@H](C)CCCCCC)C(=O)OCCC(=O)O', 4.02),
  ('C=C(CC(=O)OC1CCCCC1)C(=O)OCC(=O)O', 2.65),
  ('C=C(CC(=O)O[C@@H](C)CCCCCC)C(=O)OCC(=O)O', 3.68);

###

This section presents compounds with their documented concentration at 6 h values.
Experiment: Mouse pharmacokinetic study, oral administration
Type: in vivo
Conditions: male, C57BL/6, mouse, plasma, po, 100 mg/kg, plasma, male C57BL/6 mice, oral gavage 100 mg/kg, 6 h; read-out: Parent compound concentrations following oral administration, Time 6 h
Procedure: Pharmacokinetic studies were carried out in 6-8-week-old male C57BL/6 mice having free access to food and water. […] For both intravenous and oral routes, the mice were restrained manually at the designated time points, with ca. 110 μL of blood being taken into K2EDTA tubes via the facial vein. Blood samples were put on ice and centrifuged to obtain plasma samples from which the concentration at each time point was measured by LC-MS/MS.
readout_kind: concentration at 6 h (µg/mL)

INSERT INTO assay_data (compound, measured_number) VALUES
  ('C=C(CC(=O)O[C@H](CC)CCCCC)C(=O)OCC(=O)O', 2.25),
  ('C=C(CC(=O)O[C@H](C)CCCCCC)C(=O)OCc1nn[nH]n1', 0.108),
  ('C=C(CC(=O)O[C@@H](C)CCCCCC)C(=O)OCc1nn[nH]n1', 0.135),
  ('C=C(CC(=O)O[C@@H](C)CCCCCC)C(=O)OCCc1nnn[nH]1', 0.016),
  ('C=C(CC(=O)OC(C)(C)CCCCCC)C(=O)OCC(=O)O', 0.079),
  ('C=C(CC(=O)OC(C)(C)CCCCC)C(=O)OCC(=O)O', 0.055),
  ('C=C(CC(=O)OC1CCCCCCC1)C(=O)OCc1nnn[nH]1', 0.094),
  ('C=C(CC(=O)OC1CCCCC1)C(=O)OCc1nnn[nH]1', 0.163),
  ('C=C(CC(=O)OCCCCCC)C(=O)OCC(=O)O', 0.196);

###

Tested on: IL-6 cytokine output from THP-1s
Assay: THP-1 AlphaLISA IL-6 cytokine assay
Type: cell-based, human
Settings: Homo sapiens; PMA-differentiated THP-1 cells, LPS 24 hr then Nigericin 1 hour
readout_kind: IC50 (µM)

INSERT INTO results (compound, assayed_system, unit_of_measurement, measured_number) VALUES
  ('C=C(CC(=O)OCCCCCCCC)C(=O)OCCN1CCN(C)CC1 [Example 51]', 'IL-6 cytokine output from THP-1s', 'µM', 4),
  ('C=C(CC(=O)OCCCCCCCC)C(=O)OC1(C)COC1 [Example 68]', 'IL-6 cytokine output from THP-1s', 'µM', 9.1),
  ('C=C(CC(=O)OC1CCCCC1)C(=O)OC(C)C(=O)O (centres unmarked) [Example 111]', 'IL-6 cytokine output from THP-1s', 'µM', 70.9),
  ('C=C(CC(=O)O[C@H](C)CCCCCC)C(=O)OCCS(C)(=O)=O [Example 55]', 'IL-6 cytokine output from THP-1s', 'µM', 3.8),
  ('C=C(CC(=O)OCCOCCOCC)C(=O)OCCS(C)(=O)=O [Example 36]', 'IL-6 cytokine output from THP-1s', 'µM', 8.9),
  ('C=C(CC(=O)OCCCCCCCC)C(=O)OCCS(C)(=O)=O [Example 2]', 'IL-6 cytokine output from THP-1s', 'µM', 2.9),
  ('C=C(CC(=O)OCC1CCC(F)(F)CC1)C(=O)OCC(=O)O [Example 113]', 'IL-6 cytokine output from THP-1s', 'µM', 48.5),
  ('C=C(CC(=O)O[C@@H](C)CCCCCC)C(=O)OC1CN(C(C)=O)C1 [Example 66]', 'IL-6 cytokine output from THP-1s', 'µM', 2.5);
